Values were extracted from patent US20240286998A1.

target.of.assay: UniProtKB P08908
procedure.text: 5-HT1A Gi/o-mediated cAMP inhibition, GloSensor assay
Assay type: cell-based
condition.context: cAMP inhibition, 0.2 μM isoproterenol; IA = Inactive
Recorded 5-HT1A-cAMP Emax (% 5-HT) for the following molecules
property: 5-HT1A-cAMP Emax (% 5-HT)

molecule="CCCN(CCc1c[nH]c2ccc(F)cc12)C(C)CC (stereo not shown) [compound 22]" property="5-HT1A-cAMP Emax (% 5-HT)" u="% 5-HT" val=102.90
molecule="CN(CCc1c[nH]c2ccc(F)cc12)C1CSC1 [compound 20]" property="5-HT1A-cAMP Emax (% 5-HT)" u="% 5-HT" val=93.1
molecule="CCCN(CCC)CCc1c[nH]c2ccc(F)cc12 [Example 5]" property="5-HT1A-cAMP Emax (% 5-HT)" u="% 5-HT" val=87.5
molecule="C=CCN(CCc1c[nH]c2ccc(F)cc12)C(C)C [Example 11]" property="5-HT1A-cAMP Emax (% 5-HT)" u="% 5-HT" val=95.5
molecule="CCC(C)N(CC)CCc1c[nH]c2ccc(F)cc12 (stereo not shown) [compound 30]" property="5-HT1A-cAMP Emax (% 5-HT)" u="% 5-HT" val=104.0
molecule="CC(C)N(CCc1c[nH]c2ccc(F)cc12)C1CCC1 [compound 40]" property="5-HT1A-cAMP Emax (% 5-HT)" u="% 5-HT" val=102.1
molecule="CN1CCC(c2c[nH]c3cc(F)c(F)cc23)C1 (stereo not shown) [compound 19]" property="5-HT1A-cAMP Emax (% 5-HT)" u="% 5-HT" val=113.3
molecule="C=CCN(CC)CCc1c[nH]c2ccc(F)cc12 [compound 36]" property="5-HT1A-cAMP Emax (% 5-HT)" u="% 5-HT" val=98.4
molecule="CCCN(CCc1c[nH]c2ccc(F)cc12)C(C)C [Example 4]" property="5-HT1A-cAMP Emax (% 5-HT)" u="% 5-HT" val=80.5
molecule="CN(C)CCc1c[nH]c2ccc(F)cc12 [Compound 5-F-DMT]" property="5-HT1A-cAMP Emax (% 5-HT)" u="% 5-HT" val=94.2
